Test system: Salivary alpha-amylase (Homo sapiens)
measurement_notes: Inhibition of human salivary alpha-amylase assessed as formation of p-nitrophenol
Calls of active or inactive are those of the source. The rule behind the calls is not given here.

molecular_string | inhibition
NC(=O)[C@H](Cc1ccccc1)NC(=O)[C@H](Cc1ccc(O)cc1)NC(=O)CCC(=O)Nc1ccc(O[C@H]2O[C@H](CO)[C@@H](O[C@H]3O[C@H](CO)[C@@H](O[C@H]4O[C@H](CO)[C@@H](O[C@H]5O[C@H](CO)[C@@H](O[C@H]6O[C@H](CO)[C@@H](O)[C@H](O)[C@H]6O)[C@H](O)[C@H]5O)[C@H](O)[C@H]4O)[C@H](O)[C@H]3O)[C@H](O)[C@H]2O)cc1 | inactive
NC(=O)[C@H](Cc1ccc(O)cc1)NC(=O)[C@H](Cc1c[nH]c2ccccc12)NC(=O)CCC(=O)Nc1ccc(O[C@H]2O[C@H](CO)[C@@H](O[C@H]3O[C@H](CO)[C@@H](O[C@H]4O[C@H](CO)[C@@H](O[C@H]5O[C@H](CO)[C@@H](O[C@H]6O[C@H](CO)[C@@H](O)[C@H](O)[C@H]6O)[C@H](O)[C@H]5O)[C@H](O)[C@H]4O)[C@H](O)[C@H]3O)[C@H](O)[C@H]2O)cc1 | inactive
NC(=O)[C@H](Cc1c[nH]c2ccccc12)NC(=O)[C@H](Cc1ccc(O)cc1)NC(=O)CCC(=O)Nc1ccc(O[C@H]2O[C@H](CO)[C@@H](O[C@H]3O[C@H](CO)[C@@H](O[C@H]4O[C@H](CO)[C@@H](O[C@H]5O[C@H](CO)[C@@H](O[C@H]6O[C@H](CO)[C@@H](O)[C@H](O)[C@H]6O)[C@H](O)[C@H]5O)[C@H](O)[C@H]4O)[C@H](O)[C@H]3O)[C@H](O)[C@H]2O)cc1 | inactive

====

system_under_test: Pancreatic alpha-amylase (Sus scrofa) (UniProt P00690)
Sequence (whole entry): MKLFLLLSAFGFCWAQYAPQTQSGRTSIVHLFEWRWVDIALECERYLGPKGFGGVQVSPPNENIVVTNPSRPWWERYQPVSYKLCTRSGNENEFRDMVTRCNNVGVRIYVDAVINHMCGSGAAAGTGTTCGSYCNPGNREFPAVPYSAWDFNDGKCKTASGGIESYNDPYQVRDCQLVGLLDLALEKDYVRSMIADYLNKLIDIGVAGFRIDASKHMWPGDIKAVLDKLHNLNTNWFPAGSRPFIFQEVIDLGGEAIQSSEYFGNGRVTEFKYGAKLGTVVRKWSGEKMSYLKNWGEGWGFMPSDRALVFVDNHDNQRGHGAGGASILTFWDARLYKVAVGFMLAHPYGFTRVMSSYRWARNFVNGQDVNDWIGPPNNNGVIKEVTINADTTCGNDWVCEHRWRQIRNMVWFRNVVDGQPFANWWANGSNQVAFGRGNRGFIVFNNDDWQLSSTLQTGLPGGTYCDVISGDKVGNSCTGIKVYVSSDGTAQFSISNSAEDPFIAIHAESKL
measurement_notes: Inhibition of pig alpha-amylase assessed as formation of p-nitrophenol
Active and inactive are the calls of the source. The rule behind the calls is not given here.
experimental_readout: inhibition

molecular_string | observed_result
NC(=O)[C@H](Cc1c[nH]c2ccccc12)NC(=O)[C@H](Cc1ccc(O)cc1)NC(=O)CCC(=O)Nc1ccc(O[C@H]2O[C@H](CO)[C@@H](O[C@H]3O[C@H](CO)[C@@H](O[C@H]4O[C@H](CO)[C@@H](O[C@H]5O[C@H](CO)[C@@H](O[C@H]6O[C@H](CO)[C@@H](O)[C@H](O)[C@H]6O)[C@H](O)[C@H]5O)[C@H](O)[C@H]4O)[C@H](O)[C@H]3O)[C@H](O)[C@H]2O)cc1 | inactive
NC(=O)[C@H](Cc1ccc(O)cc1)NC(=O)[C@H](Cc1c[nH]c2ccccc12)NC(=O)CCC(=O)Nc1ccc(O[C@H]2O[C@H](CO)[C@@H](O[C@H]3O[C@H](CO)[C@@H](O[C@H]4O[C@H](CO)[C@@H](O[C@H]5O[C@H](CO)[C@@H](O[C@H]6O[C@H](CO)[C@@H](O)[C@H](O)[C@H]6O)[C@H](O)[C@H]5O)[C@H](O)[C@H]4O)[C@H](O)[C@H]3O)[C@H](O)[C@H]2O)cc1 | inactive

====

system_under_test: Pancreatic alpha-amylase (Sus scrofa) (UniProt P00690)
measurement_notes: Inhibition of pig alpha-amylase assessed as formation of p-nitrophenol
Active and inactive are the calls of the source. The calls are words filed in the database; no cut-off is given here.

molecular_string | system_under_test | inhibition
NC(=O)[C@H](Cc1ccccc1)NC(=O)[C@H](Cc1ccccc1)NC(=O)CCC(=O)Nc1ccc(O[C@H]2O[C@H](CO)[C@@H](O[C@H]3O[C@H](CO)[C@@H](O[C@H]4O[C@H](CO)[C@@H](O[C@H]5O[C@H](CO)[C@@H](O[C@H]6O[C@H](CO)[C@@H](O)[C@H](O)[C@H]6O)[C@H](O)[C@H]5O)[C@H](O)[C@H]4O)[C@H](O)[C@H]3O)[C@H](O)[C@H]2O)cc1 | Pancreatic alpha-amylase (Sus scrofa) (UniProt P00690) | inactive
NC(=O)[C@H](Cc1c[nH]c2ccccc12)NC(=O)[C@H](Cc1ccccc1)NC(=O)CCC(=O)Nc1ccc(O[C@H]2O[C@H](CO)[C@@H](O[C@H]3O[C@H](CO)[C@@H](O[C@H]4O[C@H](CO)[C@@H](O[C@H]5O[C@H](CO)[C@@H](O[C@H]6O[C@H](CO)[C@@H](O)[C@H](O)[C@H]6O)[C@H](O)[C@H]5O)[C@H](O)[C@H]4O)[C@H](O)[C@H]3O)[C@H](O)[C@H]2O)cc1 | Pancreatic alpha-amylase (Sus scrofa) (UniProt P00690) | inactive

These measurements were taken from ChEMBL document CHEMBL1759986.
